Kindly supply the reported GI50 values for the records listed here.
Tested on: SK-MEL-28
assay notes: NCI tumour cell line growth inhibition, 48 h
Calls of active or inactive are those of the source. No stated cut-off is given here; in the data, active = GI50 up to about 1.1 µM and inactive = higher.

The compound listed as COc1ccc2oc(-c3ccncc3)cc(=O)c2c1 has a reported GI50 of > 100 µM (inactive)

The compound listed as Nc1ccc2c(c1)C(=O)N1CCC[C@H]1C(=O)N2 has a reported GI50 of > 100 µM (inactive)

The compound listed as COC(=O)/C=C(/C(=O)OC)c1cc2ccc3c([nH]c4ccccc43)c(C)c-2c1 has a reported GI50 of 5.55 µM (inactive)

The compound listed as COc1ccc2nc3cc(Cl)ccc3c(NC(C)CCCN(CCCl)CCCl)c2c1 (stereo not given) has a reported GI50 of 5 µM (inactive)

The compound listed as CCOc1cc(/C=N\N(C)C)cc(/C=N\N(C)C)c1O has a reported GI50 of 35.4 µM (inactive)

The compound listed as O=C(O)CN1CCSc2ccccc2CN(CC(=O)O)CCSc2ccccc2C1 has a reported GI50 of > 100 µM (inactive)

The compound listed as CCN(CC)CCC(=O)Nc1ccc2sc3ccccc3c(=O)c2n1 has a reported GI50 of 16.7 µM (inactive)

The compound listed as N=C(N)NCCN1CCCCCc2ccccc21 has a reported GI50 of > 10 µM (inactive)

The compound listed as O=c1c2cc(Cl)cc(Cl)c2oc2nc3n(c(=O)c12)CCCS3 has a reported GI50 of > 100 µM (inactive)

The compound listed as COC(=O)CCC(NC(=S)N/N=C(\C)c1cnccn1)C(=O)OC (stereo not given) has a reported GI50 of 55.8 µM (inactive)

---

Test system: A549
assay notes: NCI tumour cell line growth inhibition, 48 h
Activity calls are given as the source filed them. Rule as the data show it: active = GI50 up to about 1.1 µM and inactive = higher.
Kindly supply the reported GI50 values for the records listed here.

The compound listed as COC(=O)C1CC2CC(=NNC(N)=O)CC2C1 (stereo not given) has a reported GI50 of > 100 µM (inactive)

The compound listed as CCc1nnc(S)n1/N=C\c1ccc(-c2ccccc2Cl)o1 has a reported GI50 of 32.6 µM (inactive)

The compound listed as O=C1/C(=C\c2ccc(Cl)cc2)N=C(c2ccccc2)N1n1c(=O)cn[nH]c1=S has a reported GI50 of > 100 µM (inactive)

The compound listed as C/C(=C\CO)CC[C@@H]1[C@@]2(C)CCCC(C)(C)[C@@H]2CC[C@@]1(C)O has a reported GI50 of 29.6 µM (inactive)

The compound listed as O=C1c2ccccc2C(=O)c2c1ccc1c2N=C(c2ccc(Br)cc2)CC(c2cccc3ccccc23)N1 (stereo not given) has a reported GI50 of > 100 µM (inactive)

---

System: DLD-1
assay notes: NCI tumour cell line growth inhibition, 48 h
Active and inactive are the calls of the source. No stated cut-off is given here; in the data, active = GI50 up to about 1.1 µM and inactive = higher.
Kindly supply the reported GI50 values for the records listed here.

Considering Cn1nc(-c2ccccc2)c(C(=O)/C=C/c2ccc(Cl)cc2)c(N2CCOCC2)c1=O , its GI50 with DLD-1 was recorded as 2.96 µM (inactive)

Considering CCCC(O)C(NC(=O)CCl)C(=O)O (centres undefined) , its GI50 with DLD-1 was recorded as > 100 µM (inactive)

Considering c1ccc2cc3[s+]snc3cc2c1 , its GI50 with DLD-1 was recorded as > 100 µM (inactive)

Considering Nc1c(-c2nc3ccccc3[nH]2)sc(=S)n1-c1ccc(Cl)cc1 , its GI50 with DLD-1 was recorded as 48.2 µM (inactive)

---

Kindly supply the reported GI50 values for the records listed here.
Test system: MCF7
assay notes: NCI tumour cell line growth inhibition, 48 h
Active and inactive are the calls of the source. Rule as the data show it: active = GI50 up to about 1.1 µM and inactive = higher.

Considering S=C1C(CCCOCc2ccccc2)C2CCCC23CC2(CCN13)OCCS2 (configuration not stated) , its GI50 with MCF7 was recorded as > 10 µM (inactive)

Considering C=C1CCc2ccccc2C1=O , its GI50 with MCF7 was recorded as 56 µM (inactive)

Considering CO/C(=N\N=C(/C)C(F)(F)F)c1ccncc1 , its GI50 with MCF7 was recorded as > 100 µM (inactive)

Considering C=CCOCn1cc(F)c(=O)[nH]c1=O , its GI50 with MCF7 was recorded as > 100 µM (inactive)

Considering c1cncc(-c2ncc3cccnc3n2)c1 , its GI50 with MCF7 was recorded as > 100 µM (inactive)

Considering O=C(CCc1ccccc1)NCCc1ccc(O)c(O)c1 , its GI50 with MCF7 was recorded as 31.8 µM (inactive)

Considering CN(C)CCNC(=O)c1ccc(NC(=O)c2nc([N+](=O)[O-])cn2C)cc1 , its GI50 with MCF7 was recorded as > 100 µM (inactive)

Considering O=P1(c2ccccc2)C2=CCC=CC2C(c2ccccc2)N1Cc1ccccc1 (configuration not stated) , its GI50 with MCF7 was recorded as 11.2 µM (inactive)

Considering O=C(Nc1nn(C(=O)c2cccnc2)c(=O)s1)c1ccc(Cl)cc1 , its GI50 with MCF7 was recorded as 77.3 µM (inactive)

Considering CC(=O)Nc1ccc2[nH]c(C(=O)N3CC(CCl)c4c3cc([N+](=O)[O-])c3ccccc43)cc2c1 (configuration not stated) , its GI50 with MCF7 was recorded as 5.25 µM (inactive)

Considering CN1C(=O)c2ccccc2OC12C=Cc1c(ccc3ccccc13)O2 (configuration not stated) , its GI50 with MCF7 was recorded as 4.4 µM (inactive)

Considering O=c1c2cc(Cl)cc(Cl)c2oc2nc3n(c(=O)c12)CCCS3 , its GI50 with MCF7 was recorded as 70.5 µM (inactive)

---

System: UACC-62
assay notes: NCI tumour cell line growth inhibition, 48 h
Activity calls are given as the source filed them. Rule as the data show it: active = GI50 up to about 1.1 µM and inactive = higher.
Kindly supply the reported GI50 values for the records listed here.

Considering Cc1ncc(CI)c(CI)c1O , its GI50 with UACC-62 was recorded as > 100 µM (inactive)

Considering O=C(O)c1cc2ccc3ccccc3c2oc1=O , its GI50 with UACC-62 was recorded as > 100 µM (inactive)

Considering CCCCCCCCCCCCNC(=O)CCC(NC(=O)c1ccc(N(C)Cc2cnc3nc(N)nc(N)c3n2)cc1)C(=O)NCCCCCCCCCCCC (configuration not stated) , its GI50 with UACC-62 was recorded as 55.5 µM (inactive)

Considering OCc1cc2c(ccc3sc4ccc5sc6ccc7ncccc7c6c5c4c32)s1 , its GI50 with UACC-62 was recorded as 7.45 µM (inactive)

Considering N#Cc1ccc(/C=C(/C(=O)c2ccccc2)c2ccccc2)cc1 , its GI50 with UACC-62 was recorded as 7.48 µM (inactive)

Considering COC(=O)[C@@H]1[C@H](O)CCC2=C(CC(=O)c3ccoc3)[C@H](C)CC[C@]21C , its GI50 with UACC-62 was recorded as 25.4 µM (inactive)

Considering O=C(NC(OCc1ccccc1)(C(F)(F)F)C(F)(F)F)OCc1ccccc1 , its GI50 with UACC-62 was recorded as 13.9 µM (inactive)

---

System: HOP-92
assay notes: NCI tumour cell line growth inhibition, 48 h
The source made the active and inactive calls. Cut-off read from the data, not from the text of the source: active = GI50 up to about 1.1 µM and inactive = higher.
Kindly supply the reported GI50 values for the records listed here.

The molecule listed as NC(=O)c1ncn2c1NCC1OC2C(O)C1O (centres undefined) has a reported GI50 of > 100 µM (inactive)

The molecule listed as CC1OC2=N[C@@H]1C(=O)N[C@@H](C(C)C)C1=N[C@H](C(=O)N[C@@H](C(C)C)C3=N[C@H](C(=O)N[C@@H](C(C)C)C4=N[C@H](C(=O)N[C@H]2C(C)C)C(C)O4)C(C)O3)C(C)O1 (some centres undefined) has a reported GI50 of > 10 µM (inactive)

The molecule listed as COc1cccc(NC(=O)CC(=O)N2N=C(N(CCC#N)c3ccccc3C)CC2c2ccccc2)c1 (centres undefined) has a reported GI50 of > 100 µM (inactive)

The molecule listed as O=Cc1ccc(-c2cccc([N+](=O)[O-])c2)s1 has a reported GI50 of > 100 µM (inactive)

The molecule listed as Cc1cn(CCCCCCOC(=O)NC(CCCNC(=N)N)C(=O)O)c(=O)[nH]c1=O (centres undefined) has a reported GI50 of > 100 µM (inactive)

The molecule listed as COc1ccc2c(c1)CC[C@@H]1[C@@H]2CC[C@]2(C)[C@@H](O)/C(=C/c3ccncc3)C[C@@H]12 has a reported GI50 of 14 µM (inactive)

The molecule listed as O=C(O)C1C(C(=O)Nc2ccc3c(c2)Cc2ccccc2-3)C2(Cl)C(Cl)=C(Cl)C1(Cl)C2(Cl)Cl (centres undefined) has a reported GI50 of 21.5 µM (inactive)

The molecule listed as CCOP(=O)(C/C=C/Cn1ncc(=O)[nH]c1=O)OCC has a reported GI50 of > 100 µM (inactive)

The molecule listed as Cc1cc(N(CCC#N)CCC#N)ccc1/C=C/C(=O)Nc1ccccc1Cl has a reported GI50 of > 100 µM (inactive)

The molecule listed as NNC(=O)c1ccc[n+](CCc2ccccc2)c1 has a reported GI50 of > 100 µM (inactive)

The molecule listed as [N-]=[N+]=Nc1ccc2c(c1)Sc1ccccc1N2CCCCN1CCN(Cc2ccc(C(=O)c3ccccc3)cc2)CC1 has a reported GI50 of 2.29 µM (inactive)

The molecule listed as Brc1cccc(Nc2nc(-c3cccs3)nc3ccc(Br)cc23)c1 has a reported GI50 of 19.6 µM (inactive)

The molecule listed as NC(=O)C(=O)Cc1nc2ccccc2s1 has a reported GI50 of > 100 µM (inactive)

The molecule listed as COc1ccc(C(=O)C(C(=O)CC(=O)Nc2cccc(C(F)(F)F)c2)c2ccc(OC)cc2)cc1 (centres undefined) has a reported GI50 of > 100 µM (inactive)

The molecule listed as Cc1ccc(OCC2OC(n3cnc4nc(N)nc(Cl)c43)CC2Oc2ccc(C)cc2)cc1 (centres undefined) has a reported GI50 of 17.3 µM (inactive)

The molecule listed as O=P(Nc1ccccc1)(Oc1ccccc1)N(CCCl)CCCl (centres undefined) has a reported GI50 of 26.4 µM (inactive)

The molecule listed as COC(=O)C1=C(C(=O)OC)C(C(=O)c2ccc(Br)cc2)N2N=C(c3ccc(Cl)cc3)C=CC12 (centres undefined) has a reported GI50 of 72.1 µM (inactive)

The molecule listed as COC1(OC)C2(Cl)C(Cl)=C(Cl)C1(Cl)C1C=CC=CC12 (centres undefined) has a reported GI50 of 40.2 µM (inactive)

The molecule listed as CCC12C=C(C(=O)OC)N3c4ccccc4C4CCN(CCC1)C2C43 (centres undefined) has a reported GI50 of 34.8 µM (inactive)

The molecule listed as C[n+]1c2ccccc2c(CNC(CS)C(=O)O)c2ccccc21 (centres undefined) has a reported GI50 of 18.7 µM (inactive)

The molecule listed as CC1=C/C(=N\NC(N)=S)C(C(O)(C(F)(F)F)C(F)(F)F)C(C)(C)C1 (centres undefined) has a reported GI50 of > 10 µM (inactive)

The molecule listed as Nc1cc(Cl)ccc1SSc1ccc(Cl)cc1N has a reported GI50 of 41.7 µM (inactive)

The molecule listed as COC(=O)c1csc(-c2csc(CCNC(=O)OC(C)(C)C)n2)n1 has a reported GI50 of > 100 µM (inactive)

The molecule listed as CN(C)c1nc2nonc2nc1Nc1ccccc1 has a reported GI50 of > 100 µM (inactive)

The molecule listed as N=C(N)/N=C(\N)Nc1cnccn1 has a reported GI50 of > 100 µM (inactive)

The molecule listed as CCOC(=O)c1ccc(/N=c2/[nH]c3ccccc3s/c2=N/c2ccc(C(=O)OCC)cc2)cc1 has a reported GI50 of > 100 µM (inactive)

The molecule listed as COc1cc2c(cc1OCCCCN1C(=O)c3cccc4cccc(c34)C1=O)N=C[C@@H]1CCCN1C2=O has a reported GI50 of 6.18 µM (inactive)

The molecule listed as CCOC(=O)c1c(N/C(S)=N/c2ccccc2)sc2c1CCOC2 has a reported GI50 of 24.9 µM (inactive)

The molecule listed as CC1(C)C2CCC13CS(=O)(=O)N1O[C@]13C(=O)O2 (some centres undefined) has a reported GI50 of > 100 µM (inactive)
